Can you tell me inhibition for the items I'm about to list?
- system: Phosphatidylinositol 4-kinase beta (Homo sapiens)
- method_description: Inhibition of PIK4CB at 1 uM

Some solved cases for reference:
{"columns": ["smiles_record", "inhibition"],
 "data": [
  ["CN1CCN(c2ccc(-c3cnc4c(c3)N(Cc3cc(Cl)ccc3C(F)(F)F)CCN4)cn2)CC1", "< 50%"],
  ["COC1CCN(C(=O)c2ccc(-c3cnc4c(c3)N(Cc3cc(Cl)ccc3C(F)(F)F)CCN4)cc2)CC1", "< 50%"],
  ["CN1CCN(c2ccc(-c3cnc4c(c3)N(Cc3cc(F)ccc3F)CCN4)cn2)CC1", "< 50%"]
]}

Okay, here is my list. What is inhibition for each of these?
1. CN1CCN(c2ccc(-c3cnc4c(c3)N(Cc3cc(Cl)ccc3Cl)CCN4)cn2)CC1
2. CC(=O)N1CCN(c2cc(-c3cnc4c(c3)N(Cc3cc(Cl)ccc3C(F)(F)F)CCN4)ccn2)CC1

["< 50%", "< 50%"]

Source: ChEMBL document CHEMBL1165965
